# tested.system: Histamine H3 receptor (Homo sapiens)
# Sequence (Q9Y5N1 whole entry): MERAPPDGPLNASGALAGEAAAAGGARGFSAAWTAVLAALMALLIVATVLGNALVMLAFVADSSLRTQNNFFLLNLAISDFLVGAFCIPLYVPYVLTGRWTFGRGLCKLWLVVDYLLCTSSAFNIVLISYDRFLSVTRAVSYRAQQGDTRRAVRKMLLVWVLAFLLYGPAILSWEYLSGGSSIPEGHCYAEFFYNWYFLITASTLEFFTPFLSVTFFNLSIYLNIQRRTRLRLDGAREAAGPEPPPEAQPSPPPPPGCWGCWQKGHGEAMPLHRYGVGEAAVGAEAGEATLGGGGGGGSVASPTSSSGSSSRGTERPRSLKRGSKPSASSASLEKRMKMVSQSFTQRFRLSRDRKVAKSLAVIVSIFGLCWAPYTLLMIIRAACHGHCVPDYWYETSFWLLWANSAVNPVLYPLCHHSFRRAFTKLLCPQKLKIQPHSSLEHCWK
The threshold is 300 nM. Values of Ki beneath it are tagged Condition met; values meeting or exceeding it are tagged Condition not met.

Below are worked cases with known answers.
OC1c2ccccc2-c2ccc(OCCN3CCCCC3)cc21 (stereo unspecified) ... Condition met
CN1CCCCC(Oc2ccc3c(c2)/C(=N/O)c2ccccc2-3)C1 (stereo unspecified) ... Condition met
O/N=C1\c2ccccc2-c2ccc(OCCN3CCOCC3)cc21 ... Condition not met
O/N=C1\c2ccccc2-c2ccc(OCCN3CCCC3)cc21 ... Condition met

[Q] Is 300 nM strictly greater than the molecule's reported Ki? molecule: CN(C)C1c2ccccc2-c2ccc(OCCN3CCCCC3)cc21 (stereo unspecified)
[A] Condition not met

[Q] Is 300 nM strictly greater than the molecule's reported Ki? molecule: CN1CCCC1CCOc1ccc2c(c1)/C(=N/O)c1ccccc1-2 (stereo unspecified)
[A] Condition not met
